# EXPERIMENT_DESCRIPTION: Tested for the oral bioavailability of the compound
# Assay type: ADME, organism-based, Cavia porcellus
# CONDITIONS_USED: guinea pig, in vivo, read-out: Bioavailabiility
QUANTITY_NAME: bioavailability (%)
Numbers only here, please. The scale is %.

bioavailability for `COc1ccc(C(=O)Nc2c(Cl)cncc2Cl)c2cccnc12` ?
62

---

# EXPERIMENT_DESCRIPTION: Tested for the pharmacokinetic parameter in guinea pig, administered orally at 5 mg/kg
# Assay type: ADME, organism-based, Cavia porcellus
# Parameters: dose 5 mg/kg, route oral
# CONDITIONS_USED: in vivo, po
QUANTITY_NAME: AUC (ng·h/mL)
Numbers only here, please. The scale is ng·h/mL.

AUC for `COc1ccc(C(=O)Nc2c(Cl)cncc2Cl)c2cccnc12` ?
925

---

# EXPERIMENT_DESCRIPTION: Compound at a dose 5 mg/kg was administered orally to guinea pig and the pharmacokinetic parameter (Cmax) was reported
# Assay type: ADME, organism-based, Cavia porcellus
# Parameters: dose 5 mg/kg, route oral
# CONDITIONS_USED: in vivo, po
QUANTITY_NAME: Cmax
Output should be the measured figure followed by the unit it is expressed in.

Cmax for `COc1ccc(C(=O)Nc2c(Cl)cncc2Cl)c2cccnc12` ?
473 ng/mL

---

# EXPERIMENT_DESCRIPTION: Tested for the half life period of the compound, intravenously
# Format: ADME, organism-based, Cavia porcellus
# CONDITIONS_USED: guinea pig, in vivo, iv
QUANTITY_NAME: half-life (min)
Numbers only here, please. The scale is min.

half-life for `COc1ccc(C(=O)Nc2c(Cl)cncc2Cl)c2cccnc12` ?
36
